molecular target: hTREX1 (Homo sapiens); test: hTREX1 HCT116 Cell Assay (HCT116 dual cells, Lucia luciferase reporter of Type I interferon induction); settings: TREX1i 4 h before pBR322/BstNI transfection, read after 48 h
Sequence (Q9NSU2 whole entry): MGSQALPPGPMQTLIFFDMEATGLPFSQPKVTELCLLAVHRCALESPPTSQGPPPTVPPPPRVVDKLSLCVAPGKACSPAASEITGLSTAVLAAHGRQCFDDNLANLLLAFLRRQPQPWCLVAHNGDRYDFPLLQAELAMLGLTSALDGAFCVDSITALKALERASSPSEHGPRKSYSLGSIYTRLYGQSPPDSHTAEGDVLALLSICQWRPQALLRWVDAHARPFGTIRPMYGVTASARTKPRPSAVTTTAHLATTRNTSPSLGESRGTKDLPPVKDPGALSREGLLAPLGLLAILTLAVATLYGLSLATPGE
pIC50: −log10 of the molar value.
readout.type: pIC50

// known answers, use as guide
molecule: CC(c1nc(C(=O)Nc2cnoc2)c(O)c(=O)n1C)C(c1ccccc1Cl)n1cnc2ccccc21 (single isomer, unassigned)
pIC50: 7.00 to 8.00
--
molecule: CC(c1nc(C(=O)Nc2cnoc2)c(O)c(=O)n1C)C(c1cnn(C2COC2)c1)c1ccccc1C#N (single isomer, unassigned)
pIC50: 7.00 to 8.00

# context switch: different molecule, same pIC50
Entry under review: Cc1nccc(C(c2ccccc2C#N)C(C)c2nc(C(=O)Nc3cnoc3)c(O)c(=O)n2C)n1 (single isomer, unassigned) [Example 83 D1E1] . Reported pIC50?
7.00 to 8.00
